Origin of values: ChEMBL document CHEMBL1201862

Each entry below lists one item and its recorded GI50 value.
system: U-251; assay: NCI tumour cell line growth inhibition, 48 h
The source made the active and inactive calls. No stated cut-off is given here; in the data, active = GI50 up to about 1.1 µM and inactive = higher.

molecule="COC1=CC(=O)c2c(cc(COP(N)(=O)N(CCCl)CCCl)n2C)C1=O (stereo unspecified)" measurement_label=GI50 result="0.0822 µM (active)"
molecule=N=C(N)N/N=C/c1c(-c2cccc([N+](=O)[O-])c2)nc2n1CCS2 measurement_label=GI50 result="14.9 µM (inactive)"
molecule=Cn1c(=O)sc2cc(C(=S)N3CCCCC3)ccc21 measurement_label=GI50 result="41.8 µM (inactive)"
molecule=Cc1oncc1/N=C1\C=C(O)C(=O)c2ccccc21 measurement_label=GI50 result="5.37 µM (inactive)"
molecule="CC(=O)O[C@H]1C[C@H](O[C@H]2[C@@H](O)C[C@H](O[C@H]3[C@@H](O)C[C@H](O[C@H]4CC[C@@]5(C)[C@H](CC[C@@H]6[C@@H]5C[C@@H](O)[C@]5(C)[C@@H](C7=CC(=O)OC7)CC[C@]65O)C4)O[C@@H]3C)O[C@@H]2C)O[C@H](C)[C@H]1O[C@@H]1O[C@H](CO)[C@@H](O)[C@H](O)[C@H]1O [LANATOSIDE C]" measurement_label=GI50 result="0.0741 µM (active)"

Okay, now this molecule:
Consider the molecule `CC(=O)Oc1ccc2cc(Oc3ccc(Cl)c(Cl)c3)c(=O)oc2c1` and give its measured GI50. 16 µM (inactive)
